# System: MDA-MB-231
# assayNotes: NCI tumour cell line growth inhibition, 48 h
Activity calls are given as the source filed them. No stated cut-off is given here; in the data, active = GI50 up to about 1.1 µM and inactive = higher.
endpoint: GI50

- COc1cc2c(c(O)c1OC)C(=O)C(Cc1ccc(O)cc1)CO2 (stereo not given): 22.9 µM (inactive)
- Cc1ccc(S(=O)(=O)N2CCCSCCSCCCN(S(=O)(=O)c3ccc(C)cc3)CC2)cc1: > 100 µM (inactive)
- Cc1c2cc[n+]([O-])cc2c(C)c2c1[nH]c1ccccc12: 4.28 µM (inactive)
- CN(C)S(=O)(=O)/N=C/c1cccc(/C=N/S(=O)(=O)N(C)C)c1: > 100 µM (inactive)
- Cc1c(C)c(C)n(C2OC(CO)C(O)C(O)C2O)c(=S)c1C#N (stereo not given): > 100 µM (inactive)

* * *

# System: HCC 2998
# assayNotes: NCI tumour cell line growth inhibition, 48 h
Calls of active or inactive are those of the source. Cut-off read from the data, not from the text of the source: active = GI50 up to about 1.1 µM and inactive = higher.
The following compounds are listed with their measured GI50 values.
endpoint: GI50

* O=C(/C=C/c1ccsc1)c1ccco1 | 12.2 µM (inactive)
* Cn1c(=O)nc2n(-c3ccc(Cl)c(C(F)(F)F)c3)c3ccccc3nc-2c1=O | 25.6 µM (inactive)
* COc1ccc(/N=C\c2ccc(N(CCC#N)CCC#N)cc2)cc1 | 38.8 µM (inactive)
* COc1cc(-c2cc(=O)c3cc4c(cc3[nH]2)OCO4)cc(OC)c1O | > 10 µM (inactive)
* CC1=C(C(=O)Nc2cccc(C(F)(F)F)c2)C(c2ccccc2F)C(C(=O)Nc2cccc(C(F)(F)F)c2)=C(C)N1 | 3.31 µM (inactive)
* CC1C2C=C(O)C(=O)C(C2=O)C1c1ccccc1 (stereo not given) | > 100 µM (inactive)
* COc1c(C(=O)/C(=N/Nc2ccccc2)C(C)=O)c(O)c(OC)c2occc12 | 82.4 µM (inactive)
* CC(C)C1CC[C@@H](C)C[C@@]1(O)CC(N)=O (stereo not given in full) | > 100 µM (inactive)
* COc1ccc2nc3cc(Cl)ccc3c(NCCCN(Cc3cc(OC)c(OC)c(OC)c3)Cc3cc(OC)c(OC)c(OC)c3)c2c1 | 14.3 µM (inactive)
* CC(=O)c1cccc(Nc2c3ccccc3nc3occc23)c1 | 5.21 µM (inactive)

* * *

# Test system: Malme-3M
# assayNotes: NCI tumour cell line growth inhibition, 48 h
The source made the active and inactive calls. No stated cut-off is given here; in the data, active = GI50 up to about 1.1 µM and inactive = higher.
# key: entry, value: GI50
endpoint: GI50

* O=C(Nc1ccc(Cl)cc1Cl)C(=O)C(C(=O)c1ccncc1)C1OC(=O)c2ccccc21 (stereo not given) | > 100 µM (inactive)
* Cc1ccc(NC(=O)c2c(C)nc(=O)n3c2N(/N=C/c2ccc(Cl)cc2)CC3)cc1 | 21.4 µM (inactive)
* COc1ccc(CC2=NCCc3cc(OC)c(OC)cc32)cc1Br | 22.8 µM (inactive)
* O=C1N/C(=N/N=C/C(O)C(O)C(O)C(O)CO)N/C1=C\c1ccco1 (stereo not given) | > 100 µM (inactive)
* OCC1OC(n2cnc3c2NC=NC[C@H]3O)CC1O (stereo not given in full) | 458 µM (inactive)
* CO/C=C/c1cc2c(cc1C(OC)OC)OCO2 | 53.6 µM (inactive)
* N#Cc1c(-c2ccc(Cl)cc2)c2c(n(C3OC(CO)C(O)C(O)C3O)c1=S)CCC2 (stereo not given) | 26.2 µM (inactive)
* NS(=O)(=O)c1nnc(NC(=O)c2cccc([N+](=O)[O-])c2)s1 | > 100 µM (inactive)
* N#CC(NNC(=O)Cc1ccccc1)c1cccc(O)c1 (stereo not given) | > 100 µM (inactive)
* CC1CCOc2ccc(cc2)/C=N\c2ccc(cc2)CCc2ccc(cc2)/N=C\c2ccc(cc2)OCC1 | > 100 µM (inactive)
* O=C(O)CCSC(=S)Nc1ccc([N+](=O)[O-])cc1 | 38.2 µM (inactive)
* CC1=NN(C(=O)Cc2ccccc2)C(=O)/C1=C\c1ccc(O)cc1 | > 100 µM (inactive)
* O=C(NNC(=O)c1csc(NC(=S)NC2CCCCC2)n1)c1ccccc1 | 15.5 µM (inactive)
* Cc1ccc(S(=O)(=O)Nn2c(O)c(C#N)c(-c3ccc([N+](=O)[O-])cc3)c(C#N)c2=O)cc1 | > 100 µM (inactive)
* O=C(O)C(Cc1c[nH]cn1)N1C(=O)c2ccccc2C1=O (stereo not given) | 18.9 µM (inactive)
* C=CN1CCN(c2ccccc2)P1(=O)Oc1ccccc1 (stereo not given) | > 100 µM (inactive)
* COc1ccc(OC)c(NC(=O)c2c(Cl)c(Cl)c(Cl)c(Cl)c2-c2nc3ccccc3[nH]2)c1 | > 100 µM (inactive)
* CC(C)C1CC[C@@H](C)C[C@@]1(O)CC(N)=O (stereo not given in full) | > 100 µM (inactive)
* COc1cc2c(c(O)c1OC)C(=O)C(Cc1ccc(O)cc1)CO2 (stereo not given) | 19.9 µM (inactive)
* CC(C)OP(=O)(OC(C)C)C(C(C)C)N(C)/C(N)=N\C1=NC(C(F)(F)F)(C(F)(F)F)N=C(C(C(F)(F)F)C(F)(F)F)O1 (stereo not given) | 4.51 µM (inactive)
* N#Cc1c(N2CCCC2)nsc1NCc1ccccc1 | > 100 µM (inactive)
* CC(C)N1CN(C(C(=O)N[C@@H]2C(=O)N3C2SC(C)(C)C3C(=O)O)c2ccc(O)cc2)CSC1=S (stereo not given in full) | > 100 µM (inactive)
* COC(=O)C(=O)C(C(=O)C1=NS(=O)(=O)c2cc(S(N)(=O)=O)c(Cl)cc2N1)c1nc2ccc(C(=O)c3ccccc3)cc2nc1O (stereo not given) | > 100 µM (inactive)
* CCc1c(C)c(C#N)c(=S)n(C2OC(COC(C)=O)C(OC(C)=O)C(OC(C)=O)C2OC(C)=O)c1-c1ccccc1 (stereo not given) | > 31.6 µM (inactive)
* CCCN(CCC)CCc1cc(C(C)=O)n(S(=O)(=O)c2ccc(C)cc2)c1 | > 100 µM (inactive)
* C/C=C(\C)CC/C=C/CO[Si](C)(C)C(C)(C)C | 51.1 µM (inactive)
* Clc1ccccc1/C=C/c1nsc(/C=C/c2ccccc2Cl)n1 | 53.7 µM (inactive)
* Cc1ccc(-[n+]2cc([O-])on2)cc1 | > 100 µM (inactive)
* O=C(C=P(c1ccccc1)(c1ccccc1)c1ccccc1)c1ccc(-c2ccc(F)cc2F)cc1 | 2.72 µM (inactive)
* Nc1nc2c(nnn2C2C=C(CO)C(O)C2O)c(=O)[nH]1 (stereo not given) | 95.7 µM (inactive)

* * *

# Tested on: OVCAR-5
# assayNotes: NCI tumour cell line growth inhibition, 48 h
The source made the active and inactive calls. No stated cut-off is given here; in the data, active = GI50 up to about 1.1 µM and inactive = higher.
endpoint: GI50

- Clc1cc(OCc2nn3c(Cc4ccccc4)nnc3s2)ccc1OCc1nn2c(Cc3ccccc3)nnc2s1: 51.5 µM (inactive)
- CC(=O)OCC1OC(OC2CC3C(C)(C)C(O)CC[C@]3(C)C3CCC45CC4(CCC5[C@@H](C)CC(O)C(O)C(C)(C)O)[C@]23C)C(O)C(O)C1O (stereo partly specified): > 10 µM (inactive)
- N=C(N)NS(=O)(=O)c1ccc(Nc2c3ccccc3nc3c(C(=O)Nc4ccc(S(N)(=O)=O)cc4)ccc(Cl)c23)cc1: > 100 µM (inactive)
- COc1c(C(=O)/C(=N/Nc2ccccc2)C(C)=O)c(O)c(OC)c2occc12: > 100 µM (inactive)
- CC(C)(C)N1C=[N+](C(C)(C)C)CC1: > 100 µM (inactive)
- COc1ccc(-c2cc(=O)c3cc(O)ccc3o2)c(OC)c1OC: 20.2 µM (inactive)
- O=c1[nH]c(=O)n(CCOc2ccccc2)cc1Nc1ccccc1: > 100 µM (inactive)
- O=[N+]([O-])c1ccc(C2=NOC(c3ccccc3)N2C23CC4CC(CC(C4)C2)C3)cc1 (stereo unspecified): 14.4 µM (inactive)
- C[C@H]1O[C@@H](C(C)(C)C)OC(=O)[C@@H]1C(OC(=O)c1ccccc1)c1cccc2ccccc12 (stereo partly specified): > 100 µM (inactive)
- O=C1C(Cl)C(c2ccc([N+](=O)[O-])cc2)N1n1cnc2ccccc2c1=O (stereo unspecified): > 100 µM (inactive)
- Clc1ccc(C2=NN(c3ccccc3)C3c4cc(Br)ccc4OCC23)cc1 (stereo unspecified): > 100 µM (inactive)
- NNC(=S)N/N=C(\c1nc2ccc(Cl)cc2nc1O)C(O)c1ccc(Cl)cc1Cl (stereo unspecified): > 100 µM (inactive)
- CCOC(=O)c1c2c(n(C)c1-c1ccccc1)C(=O)C(C)=CC2=O: 6.05 µM (inactive)
- CC(C)OCC(O)COc1cc(=O)oc2ccccc12 (stereo unspecified): > 100 µM (inactive)
- Cn1c(=O)nc2n(-c3ccc(Cl)c(C(F)(F)F)c3)c3ccccc3nc-2c1=O: 74.3 µM (inactive)
- COC1=CC(=O)c2c(O)c3c(c(O)c2C1=O)C[C@](C)(O)C[C@@H]3O: 12.7 µM (inactive)
- CC(C)(CC#N)c1cc(CC(C)(C)c2cc(CC(C)(C)c3cc(C(C)(C)C4(C)OCCO4)no3)no2)no1: > 100 µM (inactive)
- N/C(=N\Nc1ccc(C(=O)O)cc1)c1cnccn1: > 100 µM (inactive)
- CCCn1c(=O)c2nn3c(=O)n(CCC)c(=O)c3nn2c1=O: > 100 µM (inactive)
- c1ccc(-c2[nH]c(-c3ccccc3)c(-c3cnccn3)c2-c2cnccn2)cc1: > 100 µM (inactive)
- COC(=O)C1CC2c3c(c4ccccc4n3C)CC(C1=O)N2C (stereo unspecified): > 100 µM (inactive)
